The entries below come with measured pKd values attached.
- target.entity: KRas^G12D GNP (Homo sapiens, UniProt P01116, G12D)
- Construct: HRas 1-166 (His-TEV-N; pProEx; ampicillin resistance) and KRas 1-169; His tag with TEV site (N, cleaved yes); made in house; host or cells: E. coli BL21(DE3)
- Sequence (P01116 1-169 isoform P01116-2 G12D): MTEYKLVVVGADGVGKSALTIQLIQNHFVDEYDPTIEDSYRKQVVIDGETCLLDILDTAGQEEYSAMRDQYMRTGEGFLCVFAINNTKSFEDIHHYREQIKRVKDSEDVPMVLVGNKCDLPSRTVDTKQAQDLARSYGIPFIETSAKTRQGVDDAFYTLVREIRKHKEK
- test.description: 19F CPMG NMR probe binding (I/I0 vs probe concentration), GNP state
- particulars: 19F CPMG 160 ms; varying probe concentration; [P]0 = 6 μM for 12, 3 μM for 17; fit to eq 1; read-out: KD
- Method: We then sought to determine whether these SIIG-binders could serve as probe ligands to detect KRas proteins by ^19F NMR spectroscopy. […] Integrals (I) from single-point CPMG experiments were calculated by dividing the probe’s absolute integral by the standard’s absolute integral (3-trifluoromethylphenol, 3TFMP) from the same sample. […] In all cases, I and I0 were measured from the same premixed aliquot of probe and 3 -trifluoromethylphenol. […]
Schema: pKd number; meaning minus log10 of the concentration expressed in molar units.

record.smiles: Cc1c(Cl)cc(O)cc1NC(=O)c1cnn(-c2ccc(OCCOCC(=O)NCCN)cc2)c1C(F)(F)F
pKd: 3.11

Next up:
Given the entry NCCNC(=O)COCCOc1ccc(-n2ncc(C(=O)Nc3cc(O)cc4ccccc34)c2C(F)(F)F)cc1 , what pKd was observed with KRas^G12D GNP (Homo sapiens, UniProt P01116, G12D)?
3.41
